Tested on: MLCK
Construct: gene MYLK3
Conditions: concentration: 1 μM, replicates: in singlicate; n = 1;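 also: KINOMEscan kinase panel screen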
OBSERVATION_TYPE: %Inh (%)

{"MOLECULE": "COc1cc(Nc2nccc(N3CCC(NC(=O)Nc4ccc5c(c4)OCO5)C3)n2)cc(OC)c1OC (stereo not shown)", "DATA_VALUE": 0}
{"MOLECULE": "Cl.Cl.NCC(NC(=O)c1cc(-c2cccnc2)c(-c2ccnc3[nH]ccc23)s1)c1ccccc1 (stereo not shown)", "DATA_VALUE": 51}
{"MOLECULE": "CN1CCN(Cc2ccc(NC(=O)Nc3ccc(N(C)c4ccnc(Nc5ccc(CS(C)(=O)=O)cc5)n4)cc3)cc2)CC1.Cl", "DATA_VALUE": 26}
{"MOLECULE": "CN(C)CCOc1ccc(-c2cc(-c3ccc(Cl)c(O)c3)c(-c3ccncc3)[nH]2)cc1.Cl.Cl", "DATA_VALUE": 13}

----------
Test system: PAK3
Conditions: concentration: 1 μM, replicates: in singlicate; n = 1

{"COMPOUND_STRING": "COc1ccc(NC(=O)c2ccoc2)cc1-c1ccc(C(=O)NCC2CC2)cc1", "%Inh, %": 24}
{"COMPOUND_STRING": "N#CC1(c2cccc(C(=O)Nc3cccc(Oc4ccc5nc(NC(=O)C6CC6)sc5n4)c3)c2)CC1", "%Inh, %": 0}
{"COMPOUND_STRING": "Fc1cc(Cl)ccc1Nc1ccnc2cc(-c3ccc(CN4CCOCC4)o3)ccc12", "%Inh, %": 5}
{"COMPOUND_STRING": "COc1cccc(NC(=O)NCCNc2ccnc(Nc3ccc(F)cc3)n2)c1", "%Inh, %": 0}
{"COMPOUND_STRING": "CCn1cnc2c(NCc3ccccc3)ncnc21", "%Inh, %": 0}

----------
Here, each record is paired with measured %Inh data.
Test system: CSNK1G2
Settings: concentration: 1 μM, replicates: in singlicate; n = 1
OBSERVATION_TYPE: %Inh (%)

{"MOLECULE": "COc1ccc(C2=C(Nc3cccc(O)c3)C(=O)NC2=O)cc1 [SB-390766]", "SUBJECT_OF_TEST": "CSNK1G2", "OBSERVATION_TYPE": "%Inh", "DATA_VALUE": 0}
{"MOLECULE": "Cc1ccc(O)cc1Nc1ccnc2ccc(C(C)(C)C)cc12 [GW856805]", "SUBJECT_OF_TEST": "CSNK1G2", "OBSERVATION_TYPE": "%Inh", "DATA_VALUE": 5}
{"MOLECULE": "CSc1ccc(NC2=C(c3ccc(Cl)cc3)C(=O)NC2=O)cc1 [SB-317658]", "SUBJECT_OF_TEST": "CSNK1G2", "OBSERVATION_TYPE": "%Inh", "DATA_VALUE": 15}
{"MOLECULE": "O=C1NC(=O)C(c2ccccc2Cl)=C1Nc1cccc(Cl)c1 [SB-342409]", "SUBJECT_OF_TEST": "CSNK1G2", "OBSERVATION_TYPE": "%Inh", "DATA_VALUE": 0}
{"MOLECULE": "CCNC(=O)/C=C/c1n[nH]c2cc(Sc3ccccc3C(=O)NC)ccc12", "SUBJECT_OF_TEST": "CSNK1G2", "OBSERVATION_TYPE": "%Inh", "DATA_VALUE": 0}
{"MOLECULE": "COc1cccc(C2=C(Nc3cccc(O)c3)C(=O)NC2=O)c1 [SB-390771]", "SUBJECT_OF_TEST": "CSNK1G2", "OBSERVATION_TYPE": "%Inh", "DATA_VALUE": 0}
{"MOLECULE": "CN(c1ccc(NC(=O)N2CCN(CCCN3CCOCC3)CC2)cc1)c1ccnc(Nc2ccc(CS(C)(=O)=O)cc2)n1.Cl [GW830899]", "SUBJECT_OF_TEST": "CSNK1G2", "OBSERVATION_TYPE": "%Inh", "DATA_VALUE": 6}
{"MOLECULE": "Cc1ccc(NC(=O)c2cccc(N3CCCCC3)c2)cc1-c1ccc(C(=O)NCC2CC2)cc1 [GSK1917008]", "SUBJECT_OF_TEST": "CSNK1G2", "OBSERVATION_TYPE": "%Inh", "DATA_VALUE": 0}
{"MOLECULE": "Nc1ncc(-c2cn[nH]c2)c2scc(-c3ccc4c(c3)CCN4C(=O)Cc3ccccc3)c12 [GSK2593067]", "SUBJECT_OF_TEST": "CSNK1G2", "OBSERVATION_TYPE": "%Inh", "DATA_VALUE": 24}
{"MOLECULE": "CC(C)(C)c1ccc(C(=O)Nc2cn3cc(-n4ccnc4)ccc3n2)cc1", "SUBJECT_OF_TEST": "CSNK1G2", "OBSERVATION_TYPE": "%Inh", "DATA_VALUE": 12}
{"MOLECULE": "Cc1nn2c(=O)cc(N3CCO[C@H](C)C3)nc2n1Cc1cccc(Cl)c1Cl [GSK2373693]", "SUBJECT_OF_TEST": "CSNK1G2", "OBSERVATION_TYPE": "%Inh", "DATA_VALUE": 0}
{"MOLECULE": "CN(c1ccc2c(c1)nc(NCc1ccccc1)n2C)c1ccnc(Nc2ccc(CS(C)(=O)=O)cc2)n1.Cl [GW811603]", "SUBJECT_OF_TEST": "CSNK1G2", "OBSERVATION_TYPE": "%Inh", "DATA_VALUE": 4}
{"MOLECULE": "COc1cccc2c(-c3ccncc3)c(-c3ccc(F)cc3)nn12 [GW468513]", "SUBJECT_OF_TEST": "CSNK1G2", "OBSERVATION_TYPE": "%Inh", "DATA_VALUE": 14}
{"MOLECULE": "Nc1ncnc2scc(-c3ccc(NC(=O)Cc4cc(F)ccc4F)cc3)c12.O=C(O)C(F)(F)F [SB-731254-M]", "SUBJECT_OF_TEST": "CSNK1G2", "OBSERVATION_TYPE": "%Inh", "DATA_VALUE": 36}
{"MOLECULE": "N#Cc1cnc2cc(-c3cnc(CNCCN4CCOCC4)s3)ccc2c1Nc1ccc(Oc2ccccc2)cc1 [GW664114]", "SUBJECT_OF_TEST": "CSNK1G2", "OBSERVATION_TYPE": "%Inh", "DATA_VALUE": 0}
{"MOLECULE": "CN(C)CCOc1ccc(-c2cc(-c3ccc(Cl)c(O)c3)c(-c3ccncc3)[nH]2)cc1.Cl.Cl [SB-684387]", "SUBJECT_OF_TEST": "CSNK1G2", "OBSERVATION_TYPE": "%Inh", "DATA_VALUE": 0}
{"MOLECULE": "CC(C)c1nc(-c2cccc(NS(=O)(=O)c3c(F)cccc3F)c2)c(-c2ccnc(Nc3ccc(N4CCOCC4)nc3)n2)s1.Cl [GSK1723980]", "SUBJECT_OF_TEST": "CSNK1G2", "OBSERVATION_TYPE": "%Inh", "DATA_VALUE": 0}
